Biological target: Amine oxidase [flavin-containing] A (Homo sapiens, UniProt P21397)
Experiment: Inhibition of human recombinant MAO-A […] as incubated for 20 mins measuring increase in emission signal at 310 nm multimode plate reader assay
Endpoint: IC50 (µM)

[[record]]
structure_string = "COc1ccc2c(=O)c(/C=C/c3ccc(Cl)cc3)coc2c1"
endpoint = "IC50"
units_label = "µM"
censoring_sign = "="
val = 0.025

[[record]]
structure_string = "COc1ccc(/C=C/c2coc3ccccc3c2=O)cc1"
endpoint = "IC50"
units_label = "µM"
censoring_sign = ">"
val = 100

[[record]]
structure_string = "COc1ccc2occ(/C=C/c3ccc(N(C)C)cc3)c(=O)c2c1"
endpoint = "IC50"
units_label = "µM"
censoring_sign = "="
val = 59

[[record]]
structure_string = "COc1ccc(/C=C/c2coc3ccc(OC)cc3c2=O)cc1"
endpoint = "IC50"
units_label = "µM"
censoring_sign = "="
val = 35

[[record]]
structure_string = "O=c1c(/C=C/c2ccccc2)coc2ccccc12"
endpoint = "IC50"
units_label = "µM"
censoring_sign = ">"
val = 100

[[record]]
structure_string = "COc1ccc2c(=O)c(/C=C/c3cc(OC)c(OC)c(OC)c3)coc2c1"
endpoint = "IC50"
units_label = "µM"
censoring_sign = "="
val = 7.3


====

Target: Amine oxidase [flavin-containing] B (Homo sapiens)
Sequence (P27338 whole entry): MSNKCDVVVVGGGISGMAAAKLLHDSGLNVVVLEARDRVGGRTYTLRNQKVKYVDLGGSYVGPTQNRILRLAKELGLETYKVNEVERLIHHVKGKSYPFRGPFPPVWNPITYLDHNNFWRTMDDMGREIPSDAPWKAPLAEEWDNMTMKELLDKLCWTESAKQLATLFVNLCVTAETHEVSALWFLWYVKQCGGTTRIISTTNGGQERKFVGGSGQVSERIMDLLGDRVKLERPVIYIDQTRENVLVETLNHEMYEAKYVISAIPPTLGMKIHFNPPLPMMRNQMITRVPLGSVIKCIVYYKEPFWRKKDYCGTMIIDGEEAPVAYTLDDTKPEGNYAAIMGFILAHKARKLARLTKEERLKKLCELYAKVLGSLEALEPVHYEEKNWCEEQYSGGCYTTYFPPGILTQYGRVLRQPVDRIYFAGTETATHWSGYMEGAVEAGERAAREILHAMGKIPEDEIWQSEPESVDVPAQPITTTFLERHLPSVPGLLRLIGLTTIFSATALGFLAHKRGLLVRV
Assay: Inhibition of human recombinant MAO-B using kynuramine as substrate incubated for 20 mins measuring increase in emission signal at 400 nm multimode plate reader assay
pIC50: −log10 of the molar value.
Endpoint: pIC50

[[record]]
structure_string = "COc1ccc2occ(/C=C/c3ccc(F)cc3)c(=O)c2c1"
endpoint = "pIC50"
val = 7.47

[[record]]
structure_string = "COc1ccc2c(=O)c(/C=C/c3ccc(O)cc3)coc2c1"
endpoint = "pIC50"
val = 7.33

[[record]]
structure_string = "COc1ccc2c(=O)c(/C=C/c3cc(OC)c(OC)c(OC)c3)coc2c1"
endpoint = "pIC50"
val = 7.68

[[record]]
structure_string = "COc1ccc2occ(/C=C/c3cc(OC)c(OC)c(OC)c3)c(=O)c2c1"
endpoint = "pIC50"
val = 5.60

[[record]]
structure_string = "O=c1c(/C=C/c2ccccc2)coc2ccccc12"
endpoint = "pIC50"
val = 7.57

[[record]]
structure_string = "COc1ccc2c(=O)c(/C=C/c3ccccc3)coc2c1"
endpoint = "pIC50"
val = 7.80

[[record]]
structure_string = "CN(C)c1ccc(/C=C/c2coc3ccccc3c2=O)cc1"
endpoint = "pIC50"
val = 7.32

[[record]]
structure_string = "COc1ccc(/C=C/c2coc3ccccc3c2=O)cc1OC"
endpoint = "pIC50"
val = 6.80

[[record]]
structure_string = "O=c1c(/C=C/c2ccc(O)cc2)coc2ccccc12"
endpoint = "pIC50"
val = 7.43

[[record]]
structure_string = "COc1ccc(/C=C/c2coc3cc(OC)ccc3c2=O)cc1"
endpoint = "pIC50"
val = 8.17

[[record]]
structure_string = "COc1ccc2occ(/C=C/c3ccc(Cl)cc3)c(=O)c2c1"
endpoint = "pIC50"
val = 7.55

[[record]]
structure_string = "O=c1c(/C=C/c2ccc(Cl)cc2)coc2ccccc12"
endpoint = "pIC50"
val = 8.23

[[record]]
structure_string = "COc1ccc2occ(/C=C/c3ccc(O)cc3)c(=O)c2c1"
endpoint = "pIC50"
val = 6.48

[[record]]
structure_string = "COc1ccc2c(=O)c(/C=C/c3ccc(Cl)cc3)coc2c1"
endpoint = "pIC50"
val = 8.66

[[record]]
structure_string = "COc1ccc2occ(/C=C/c3ccc(N(C)C)cc3)c(=O)c2c1"
endpoint = "pIC50"
val = 6.64

[[record]]
structure_string = "COc1ccc(/C=C/c2coc3ccc(OC)cc3c2=O)cc1"
endpoint = "pIC50"
val = 6.82

[[record]]
structure_string = "COc1cc(/C=C/c2coc3ccccc3c2=O)cc(OC)c1OC"
endpoint = "pIC50"
val = 6.64

[[record]]
structure_string = "COc1ccc2c(=O)c(/C=C/c3ccc(N(C)C)cc3)coc2c1"
endpoint = "pIC50"
val = 8.21

[[record]]
structure_string = "COc1ccc2occ(/C=C/c3ccc(OC)c(OC)c3)c(=O)c2c1"
endpoint = "pIC50"
val = 6.10

[[record]]
structure_string = "COc1ccc2c(=O)c(/C=C/c3ccc(F)cc3)coc2c1"
endpoint = "pIC50"
val = 8.51

[[record]]
structure_string = "COc1ccc(/C=C/c2coc3ccccc3c2=O)cc1"
endpoint = "pIC50"
val = 7.54

[[record]]
structure_string = "O=c1c(/C=C/c2ccc(F)cc2)coc2ccccc12"
endpoint = "pIC50"
val = 8.07

[[record]]
structure_string = "COc1ccc2occ(/C=C/c3ccccc3)c(=O)c2c1"
endpoint = "pIC50"
val = 7.12

[[record]]
structure_string = "COc1ccc2c(=O)c(/C=C/c3ccc(OC)c(OC)c3)coc2c1"
endpoint = "pIC50"
val = 7.48


====

Examples of molecules with documented log10 of IC50 follow.
Biological target: Amine oxidase [flavin-containing] A (Homo sapiens)
Sequence (P21397 whole entry): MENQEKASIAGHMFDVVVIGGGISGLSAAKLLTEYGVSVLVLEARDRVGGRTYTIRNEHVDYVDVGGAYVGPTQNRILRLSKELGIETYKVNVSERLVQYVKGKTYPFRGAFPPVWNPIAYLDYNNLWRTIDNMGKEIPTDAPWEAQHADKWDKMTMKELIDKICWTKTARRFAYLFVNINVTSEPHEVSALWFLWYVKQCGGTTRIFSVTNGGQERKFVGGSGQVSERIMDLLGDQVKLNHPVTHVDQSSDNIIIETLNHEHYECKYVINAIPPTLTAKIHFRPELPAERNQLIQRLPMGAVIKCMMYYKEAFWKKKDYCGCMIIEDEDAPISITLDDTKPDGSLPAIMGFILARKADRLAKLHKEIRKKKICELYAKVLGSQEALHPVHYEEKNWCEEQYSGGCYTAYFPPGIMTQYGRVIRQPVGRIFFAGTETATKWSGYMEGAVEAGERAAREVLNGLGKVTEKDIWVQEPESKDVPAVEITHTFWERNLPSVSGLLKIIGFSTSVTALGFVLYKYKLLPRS
Experiment: Inhibition of human recombinant MAO-A […] as incubated for 20 mins measuring increase in emission signal at 310 nm multimode plate reader assay
Endpoint: log10 of IC50 (log10 of the value in nM)

[[record]]
structure_string = "COc1ccc(/C=C/c2coc3cc(OC)ccc3c2=O)cc1"
endpoint = "log10 of IC50"
val = 1.84

[[record]]
structure_string = "COc1ccc(/C=C/c2coc3ccccc3c2=O)cc1OC"
endpoint = "log10 of IC50"
val = 4.52

[[record]]
structure_string = "COc1ccc2occ(/C=C/c3ccc(Cl)cc3)c(=O)c2c1"
endpoint = "log10 of IC50"
val = 3.61

[[record]]
structure_string = "COc1cc(/C=C/c2coc3ccccc3c2=O)cc(OC)c1OC"
endpoint = "log10 of IC50"
val = 4.83

[[record]]
structure_string = "COc1ccc2occ(/C=C/c3ccc(F)cc3)c(=O)c2c1"
endpoint = "log10 of IC50"
val = 2.58

[[record]]
structure_string = "COc1ccc2c(=O)c(/C=C/c3ccccc3)coc2c1"
endpoint = "log10 of IC50"
val = 2.08

[[record]]
structure_string = "COc1ccc2occ(/C=C/c3ccc(OC)c(OC)c3)c(=O)c2c1"
endpoint = "log10 of IC50"
val = 4.79

[[record]]
structure_string = "COc1ccc2c(=O)c(/C=C/c3ccc(F)cc3)coc2c1"
endpoint = "log10 of IC50"
val = 1.15

[[record]]
structure_string = "COc1ccc2c(=O)c(/C=C/c3ccc(N(C)C)cc3)coc2c1"
endpoint = "log10 of IC50"
val = 2.69

[[record]]
structure_string = "O=c1c(/C=C/c2ccc(O)cc2)coc2ccccc12"
endpoint = "log10 of IC50"
val = 3.41

[[record]]
structure_string = "COc1ccc2c(=O)c(/C=C/c3ccc(O)cc3)coc2c1"
endpoint = "log10 of IC50"
val = 1.34

[[record]]
structure_string = "COc1ccc2occ(/C=C/c3ccc(O)cc3)c(=O)c2c1"
endpoint = "log10 of IC50"
val = 3.94

[[record]]
structure_string = "O=c1c(/C=C/c2ccc(F)cc2)coc2ccccc12"
endpoint = "log10 of IC50"
val = 2.79

[[record]]
structure_string = "O=c1c(/C=C/c2ccc(Cl)cc2)coc2ccccc12"
endpoint = "log10 of IC50"
val = 2.59

[[record]]
structure_string = "COc1ccc2occ(/C=C/c3ccccc3)c(=O)c2c1"
endpoint = "log10 of IC50"
val = 3.40

[[record]]
structure_string = "COc1ccc2c(=O)c(/C=C/c3ccc(OC)c(OC)c3)coc2c1"
endpoint = "log10 of IC50"
val = 4.28

[[record]]
structure_string = "CN(C)c1ccc(/C=C/c2coc3ccccc3c2=O)cc1"
endpoint = "log10 of IC50"
val = 4.62

